melting point by entry:
ASSAY METRIC: melting point

# COMPOUND, VALUE REPORTED
data = [
    ("CNC(=NS(=O)(=O)N1CCCCC1)N1CC(c2cccc(C(F)(F)F)c2)C(c2ccc(Cl)cc2)=N1 (centres unmarked)", "168 to 170 °C"),
    ("CCN(CC)S(=O)(=O)N=C(NC)N1CC(O)(c2ccccc2)C(c2ccc(Cl)cc2)=N1 (centres unmarked)", "180 to 182 °C"),
    ("CSC(=NS(=O)(=O)N1CCCCC1)N1CC(c2cccnc2)C(c2ccc(Cl)cc2)=N1 (centres unmarked)", "182 to 185 °C"),
    ("CCN(CC)S(=O)(=O)N=C(SC)N1CC(c2ccccc2)C(c2ccc(Cl)cc2)=N1 (centres unmarked)", "141 to 143 °C"),
    ("CCN(CCN(C)C)S(=O)(=O)N=C(SC)N1CC(c2ccccc2)C(c2ccc(Cl)cc2)=N1 (centres unmarked)", "158 °C"),
    ("CN(C)S(=O)(=O)N=C(NCC(F)(F)F)N1CC(c2ccccc2)C(c2ccc(Cl)cc2)=N1 (centres unmarked)", "158 to 159 °C"),
    ("CN1CCC(NC(=NS(=O)(=O)N(C)C)N2CC(c3ccccc3)C(c3ccc(Cl)cc3)=N2)CC1 (centres unmarked)", "144 to 146 °C"),
    ("CCN(c1ccccc1)S(=O)(=O)N=C(NC)N1CC(c2ccccc2)C(c2ccc(Cl)cc2)=N1 (centres unmarked)", "145 to 147 °C"),
]

* * *

ASSAY METRIC: melting point

# COMPOUND, ASSAY METRIC, VALUE REPORTED
records = [
    ("CCN(CC)S(=O)(=O)N=C(NC)N1CC(c2ccncc2)C(c2ccc(Cl)cc2)=N1 (centres unmarked) [Example 71]", "melting point", "109 to 111 °C"),
    ("CNC(=NS(=O)(=O)N1CCOCC1)N1CC(c2c(F)cccc2F)C(c2ccc(Cl)cc2)=N1 (centres unmarked) [Example 79]", "melting point", "223 to 235 °C"),
    ("CCN(CC)S(=O)(=O)N=C(NCCO)N1CC(c2ccccc2)C(c2ccc(Cl)cc2)=N1 (centres unmarked) [Example 3]", "melting point", "104 to 106 °C"),
    ("CSC(=NS(=O)(=O)N1CCOCC1)N1CC(c2ccccc2F)C(c2ccc(Cl)cc2)=N1 (centres unmarked) [Example 47]", "melting point", "205 to 207 °C"),
    ("CNC(=NS(=O)(=O)N(C)C)N1CC(c2cccc(F)c2)C(c2ccc(Cl)cc2)=N1 (centres unmarked) [Example 85]", "melting point", "110 °C"),
    ("CSC(=NS(=O)(=O)N(C)C)N1CC(c2c(F)cccc2F)C(c2ccc(Cl)cc2)=N1 (centres unmarked)", "melting point", "181 to 185 °C"),
    ("CNC(=NS(=O)(=O)N(C)C)N1CC(c2ccccc2F)C(c2ccc(Cl)cc2)=N1 (centres unmarked) [Example 84]", "melting point", "173 to 175 °C"),
    ("CNC(=NS(=O)(=O)N(C)C)N1CC(c2cccnc2)C(c2ccc(Cl)cc2)=N1 (centres unmarked) [Example 72]", "melting point", "157 to 159 °C"),
]

* * *

melting point by entry:

# MOLECULE, melting point
data = [
    ("CSC(=NS(=O)(=O)N(C)C)N1CC(c2ccccc2)C(c2ccc(Cl)cc2)=N1 (stereo not shown) [Example 36]", "159 to 160 °C"),
    ("CNC(=NS(=O)(=O)N(C)C)N1CC(c2c(F)cccc2F)C(c2ccc(Cl)cc2)=N1 (stereo not shown) [Example 80]", "214 to 216 °C"),
    ("CCN(C)S(=O)(=O)N=C(NC)N1CC(c2cccnc2)C(c2ccc(Cl)cc2)=N1 (stereo not shown)", "125 to 128 °C"),
    ("CCN(CC)S(=O)(=O)N=C(N(C)C)N1CC(c2ccccc2)C(c2ccc(F)cc2)=N1 (stereo not shown) [Example 64]", "159 to 160 °C"),
    ("O=S(=O)(N=C(NC1CC1)N1CC(c2ccccc2)C(c2ccc(Cl)cc2)=N1)N1CCCCC1 (stereo not shown) [Example 56]", "142 to 144 °C"),
    ("CN(C)S(=O)(=O)N=C(NCCF)N1CC(c2ccccc2)C(c2ccc(Cl)cc2)=N1 (stereo not shown) [Example 32]", "128 to 131 °C"),
    ("CNC(=NS(=O)(=O)N(C)C)N1CC(c2cccc(C(F)(F)F)c2)C(c2ccc(Cl)cc2)=N1 (stereo not shown)", "65 to 68 °C"),
    ("CSC(=NS(=O)(=O)N1CCc2ccccc2C1)N1CC(c2ccccc2)C(c2ccc(Cl)cc2)=N1 (stereo not shown) [Example 38]", "143 to 145 °C"),
    ("CCCN(C)S(=O)(=O)N=C(NC)N1CC(c2ccccc2)C(c2ccc(Cl)cc2)=N1 (stereo not shown)", "132 to 134 °C"),
    ("CNC(=NS(=O)(=O)N1CCCCC1)N1CC(c2cccnc2)C(c2ccc(Cl)cc2)=N1 (stereo not shown) [Example 78]", "174 to 177 °C"),
    ("CCN(CC)S(=O)(=O)N=C(NC)N1CC(c2ccccc2)C(c2ccc(Cl)s2)=N1 (stereo not shown) [Example 58]", "122 to 123 °C"),
    ("CONC(=NS(=O)(=O)N(C)C)N1CC(c2ccccc2)C(c2ccc(Cl)cc2)=N1 (stereo not shown) [Example 34]", "170 to 172 °C"),
    ("CCNC(=NS(=O)(=O)N(CC)CC)N1CC(O)(c2ccccc2)C(c2ccc(Cl)cc2)=N1 (stereo not shown) [Example 68]", "162 to 165 °C"),
    ("CNC(=NS(=O)(=O)N1CCCCC1)N1CC(c2c(F)cccc2F)C(c2ccc(Cl)cc2)=N1 (stereo not shown) [Example 81]", "260 to 263 °C"),
    ("CSC(=NS(=O)(=O)N1CCC(N2CCCCC2)CC1)N1CC(c2ccccc2)C(c2ccc(Cl)cc2)=N1 (stereo not shown) [Example 97]", "245 °C"),
    ("CNC(=NS(=O)(=O)N1CCC(O)CC1)N1CC(c2ccccc2)C(c2ccc(Cl)cc2)=N1 (stereo not shown) [Example 88]", "80 °C"),
]
